The values you see were collected from ChEMBL document CHEMBL3414539.

- EXPERIMENT_NOTES: Stability assessed as cis-trans isomerization equilibrium by mesuring remaining compound level at 1.5 x 10^-2 M exposed to UV-visible light irradiation after 22 hrs by LC-HRMS method
- Type: physicochemical
- RUN_CONDITIONS: read-out: Stability
Exercise: for every item that follows, state its recorded remaining at 22 h, 15000 µM.

As a guide, the following entries are already answered.
[
  {
    "COMPOUND_SMILES": "COc1ccc2c(c1)CC[C@H](O)/C2=C/c1cc(OC)c(OC)c(OC)c1",
    "READOUT_VALUE": "90.2%"
  },
  {
    "COMPOUND_SMILES": "COc1ccc(/C=C2\\c3cc(OC)c(OC)c(OC)c3CC[C@H]2O)cc1",
    "READOUT_VALUE": "93%"
  },
  {
    "COMPOUND_SMILES": "COc1ccc(/C=C2\\c3cc(OC)c(OC)c(OC)c3CC[C@@H]2O)cc1",
    "READOUT_VALUE": "92.6%"
  }
]

Answer for every listed entry: what is its remaining at 22 h, 15000 µM? The entries follow.
1. COc1ccc(/C=C\c2cc(OC)c(OC)c(OC)c2)cc1O
2. COc1ccc2c(c1)CC[C@@H](O)/C2=C/c1cc(OC)c(OC)c(OC)c1

1: 84%; 2: 92%
